Experiment: Blood drug concentrations upon oral administration to hamsters
Type: in vivo
Details: hamster, serum, 0.1% (w/w) in feed for 5 days, mean±S.E., N=4, read-out: hamster serum concentration of the parent drug
READOUT NAME: concentration at 5 days

[ask] Fill in: concentration at 5 days of O=C(O)CCCSc1nc2ccccc2n1Cc1cccc2ccccc12 is ___
[reply] 7.89 µM

###

Target: Trypsin (Bos taurus, UniProt P00760)
Construct: gene PRSS1
Sequence (P00760 24-246): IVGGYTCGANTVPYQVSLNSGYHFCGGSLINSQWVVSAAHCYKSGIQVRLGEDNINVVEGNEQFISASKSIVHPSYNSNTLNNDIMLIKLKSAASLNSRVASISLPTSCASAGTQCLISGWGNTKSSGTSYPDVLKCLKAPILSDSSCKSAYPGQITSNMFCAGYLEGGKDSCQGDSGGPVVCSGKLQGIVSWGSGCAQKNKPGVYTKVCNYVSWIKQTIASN
Assay: Enzyme selectivity: trypsin inhibition
Format: biochemical
Details: Compound No. 33; read-out: Inhibition constant, Trypsin
READOUT NAME: Ki

[ask] Fill in: Ki of O=C(O)CCCSc1nc2ccccc2n1Cc1cccc2ccccc12 is ___
[reply] > 10 µM
